- experiment notes: qHTS assay for small molecule agonists of the p53 signaling pathway (AID 651631); further: nearly all actives have a fitted effect of over 15% in size
- stated conditions: HCT-116 p53RE-bla reporter, beta-lactamase FRET ratio, 16 h; series mostly up to 73.3 µM
Inconclusive results are not listed. Calls of active or inactive are those of the source. The call rests on the fitted dose curve.
Allowed answers: active, inactive

Sample answers from the record:
compound	assigned class
C(=C\c1ccccc1)/CN1CCN(C(c2ccccc2)c2ccccc2)CC1	inactive
CC(C)(C)CC(C)(C)c1ccc(OCCO)cc1	inactive
O=S1OCCO1	inactive
CCC(C(=O)OCCOCCN(CC)CC)c1ccccc1 (centres undefined)	inactive
CCn1nc(C)c2c1C(=O)NCC(c1ccc(O)cc1)=N2	inactive
CCCOCCOCCO	inactive
O=C(CCCN1CCC(O)(c2ccc(Br)cc2)CC1)c1ccc(F)cc1	inactive
CCCCCCCCCCCC[N+](C)(C)CC(=O)[O-]	inactive
O=C(O)c1cccnc1C(=O)O	inactive
CCC(C)=O	inactive

Req: Dear all, I need the recorded test outcome for `CCC(=O)Oc1ccc(/C(CC)=C(\CC)c2ccc(OC(=O)CC)cc2)cc1` , thank you.
Resp: active

Req: What call does the record list for `CCCCCCCCCCCC[N+](C)(C)CCCS(=O)(=O)[O-]` ?
Resp: inactive

Req: Each compound tested received a call. Report the one for `O=C1NCCN1` .
Resp: inactive

Req: Which outcome was entered for the compound `OCCSc1ccccc1` in this test?
Resp: inactive

Req: Test call for this compound, please: `Cc1oncc1C(=O)Nc1ccc(C(F)(F)F)cc1`
Resp: inactive

Req: Test call for this compound, please: `CCN(CC)CCNC(=O)c1ccc(NC(C)=O)cc1`
Resp: inactive

Req: Please state the recorded outcome for this compound: `CCOC(=O)[C@@H](C)Oc1ccc(Oc2nc3ccc(Cl)cc3o2)cc1`
Resp: inactive
